# METHOD_SUMMARY: chemical genetic growth profiling, strain panel (AID 1159580);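 note: tested at 20 µM; growth read once vehicle control cultures reached saturation at 30 °C; 1 = growth at the plate median or of vehicle wells; lower values mean less growth of the strain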
# STUDY_CONDITIONS: S. cerevisiae deletion strains, growth OD, locus YDR137W, strain rgp1, hits give low values
Among all 5,500 compounds or so, about 2,000 (36%) were called active. About 18% were inconclusive and are not listed. The list shows a part of the results.
I'd appreciate it if you could supply normalized growth values for the items below.
Provide a numeric answer; units are not to be included.

(Q) Consider the compound CC(=O)[C@@]1(O)CCC2C3C[C@H](C)C4=CC(=O)C=CC4(C)[C@@]3(F)[C@@H](O)C[C@@]21C (stereo not given in full) and give its measured normalized growth.
(A) 0.975

(Q) Which normalized growth reading was recorded for the compound CC(CC(C(N)=O)(c1ccccc1)c1ccccc1)N(C)C (stereo not given) ?
(A) 0.968

(Q) What value of normalized growth has been recorded for this entry: C[C@]12C=CC(=O)C=C1CCC1C2[C@@H](O)C[C@@]2(C)C1CC[C@]2(O)C(=O)COP(=O)(O)O (stereo not given in full)
(A) 1.02

(Q) Quick check: normalized growth of C=C[C@H]1CN2CC[C@H]1C[C@@H]2[C@@H](OC(=O)OCC)c1ccnc2ccc(OC)cc12 ?
(A) 1.01

(Q) Fill blank: measured normalized growth of the compound COC1=CC(=O)C(C(=O)c2ccccc2)=CC1=O is ____.
(A) 0.938
